# System: HCT-15 colon
# assayDetails: NCI tumour cell line growth inhibition, 384-well format; in the data active = GI50 below about 0.43 µM; inactive = the rest
Labels: active, inactive

[[record]]
smilesstring = "Cc1sc2c(c1C)C(c1ccc(Cl)cc1)=N[C@@H](CC(=O)Nc1ccc(O)cc1)c1nnc(C)n1-2"
discretelabel = "active"

[[record]]
smilesstring = "CO[C@@]12[C@H](COC(N)=O)C3=C(C(=O)C(C)=C(N)C3=O)N1C[C@@H]1N[C@@H]12"
discretelabel = "active"

[[record]]
smilesstring = "O=c1[nH]cc(F)c(=O)[nH]1"
discretelabel = "inactive"

[[record]]
smilesstring = "COc1cc2c(cc1-c1c(C)noc1C)ncc1[nH]c(=O)n([C@H](C)c3ccccn3)c12"
discretelabel = "inactive"


====

# System: A498 renal
# assayDetails: NCI tumour cell line growth inhibition, 384-well format
propertyMeasured: GI50

[[record]]
smilesstring = "Cc1sc2c(c1C)C(c1ccc(Cl)cc1)=N[C@@H](CC(=O)Nc1ccc(O)cc1)c1nnc(C)n1-2"
propertymeasured = "GI50"
observedmeasurement = "380 nM"

[[record]]
smilesstring = "COc1cc2c(cc1-c1c(C)noc1C)ncc1[nH]c(=O)n([C@H](C)c3ccccn3)c12"
propertymeasured = "GI50"
observedmeasurement = "693 nM"

[[record]]
smilesstring = "CO[C@@]12[C@H](COC(N)=O)C3=C(C(=O)C(C)=C(N)C3=O)N1C[C@@H]1N[C@@H]12"
propertymeasured = "GI50"
observedmeasurement = "179 nM"

[[record]]
smilesstring = "COc1ccc(-c2cc3nccn3c(Nc3ncccc3C(N)=O)n2)cc1OC"
propertymeasured = "GI50"
observedmeasurement = "518 nM"

[[record]]
smilesstring = "CO[C@H]1/C=C/C[C@H](C)[C@@H](C)S(=O)(=O)NC(=O)c2ccc3c(c2)N(C[C@@H]2CC[C@H]21)C[C@@]1(CCCc2cc(Cl)ccc21)CO3"
propertymeasured = "GI50"
observedmeasurement = "3290 nM"


====

List of TGI values.
# System: LOX IMVI melanoma
# assayDetails: NCI tumour cell line growth inhibition, 384-well format
propertyMeasured: TGI

[[record]]
smilesstring = "COc1ccc(-c2cc3nccn3c(Nc3ncccc3C(N)=O)n2)cc1OC"
observedmeasurement = "4310 nM"

[[record]]
smilesstring = "CO[C@H]1/C=C/C[C@H](C)[C@@H](C)S(=O)(=O)NC(=O)c2ccc3c(c2)N(C[C@@H]2CC[C@H]21)C[C@@]1(CCCc2cc(Cl)ccc21)CO3"
observedmeasurement = "4180 nM"

[[record]]
smilesstring = "COc1cc2c(cc1-c1c(C)noc1C)ncc1[nH]c(=O)n([C@H](C)c3ccccn3)c12"
observedmeasurement = "574 nM"

[[record]]
smilesstring = "Cc1sc2c(c1C)C(c1ccc(Cl)cc1)=N[C@@H](CC(=O)Nc1ccc(O)cc1)c1nnc(C)n1-2"
observedmeasurement = "266 nM"


====

# Test system: BT-549 breast
# assayDetails: NCI tumour cell line growth inhibition, 384-well format
propertyMeasured: GI50

[[record]]
smilesstring = "COc1cc2c(cc1-c1c(C)noc1C)ncc1[nH]c(=O)n([C@H](C)c3ccccn3)c12"
propertymeasured = "GI50"
observedmeasurement = "0.504 µM"

[[record]]
smilesstring = "CO[C@H]1/C=C/C[C@H](C)[C@@H](C)S(=O)(=O)NC(=O)c2ccc3c(c2)N(C[C@@H]2CC[C@H]21)C[C@@]1(CCCc2cc(Cl)ccc21)CO3"
propertymeasured = "GI50"
observedmeasurement = "1.65 µM"

[[record]]
smilesstring = "Cc1sc2c(c1C)C(c1ccc(Cl)cc1)=N[C@@H](CC(=O)Nc1ccc(O)cc1)c1nnc(C)n1-2"
propertymeasured = "GI50"
observedmeasurement = "0.0417 µM"

[[record]]
smilesstring = "COc1ccc(-c2cc3nccn3c(Nc3ncccc3C(N)=O)n2)cc1OC"
propertymeasured = "GI50"
observedmeasurement = "2.26 µM"

